Data credit: patent US20160176924A1

targetOfAssay: T1, HIS-PDZ1 protein (PSD-95 PDZ1, residues 61-151, with tag …) (human, UniProt P78352 61-151)
T1 construct: expressed in E. coli
assayComment: FP competition, fluorescent NR2B probe
Square brackets hold non-standard residues; d marks the D form. Ends that are not written are not given here. * marks the point of attachment. (naphthalen-2-yl)ethyl = c1ccc2cc(CC*)ccc2c1; Cyclohexylmethyl = C1CCC(C*)CC1; NMeE = CN[C@@H](CCC(=O)O)C(=O)O; cyclohexylethyl = C1CCC(CC*)CC1; Bn = c1ccc(C*)cc1
endpointLabel: log10 Ki (log10 of the value in µM)
Each number you see is log10 of Ki, and the unit inside the log is µM.

These solved cases illustrate the format of a correct answer.
binder	log10 Ki
Cyclohexylmethyl-ETAV [N-Cyclohexylmethyl-ETAV (55)]	0.00
Bn-ETAV [N-Benzyl-ETAV (58)]	0.86
Et-ETAV [N-Ethyl-ETAV (52)]	0.97

Q: What does the data say about its log10 Ki? Entry: cyclohexylethyl-ETAV [N-Cyclohexylethyl-ETAV (56)]
A: -0.03

Q: What does the data say about its log10 Ki? Entry: {(naphthalen-2-yl)ethyl}-ETAV [N-(Naphtalene-2-yl)ethyl-ETAV (63)]
A: 0.00

Q: What does the data say about its log10 Ki? Entry: [NMeE]TAV (also called N-Methyl-ETAV (40)) [EMeTAV (40)]
A: 1.04

Q: What does the data say about its log10 Ki? Entry: butyl-ETAV [N-Butyl-ETAV (54)]
A: 0.92

Q: What does the data say about its log10 Ki? Entry: ETAV (not fully specified, The printed formula C25H37F2N4O8 points to an ethyl spacer, the printed name says propyl) [N-(3,4-Difluorophenyl)propyl-ETAV (62)]
A: -0.01

Q: What does the data say about its log10 Ki? Entry: ETAV (not fully specified, The printed formula C25H37Cl2N4O8 and the comparison with 59 point to an ethyl spacer, the printed name says propyl) [N-(3,4-Dichlorophenyl)propyl-ETAV (61)]
A: 0.38
